System: ADSCs
Test: Vacuolization assay
Format: cell-based, human
Applied conditions: 5 μM, 4 h
Attribute measured: vacuolization induction

1) Cc1cc2c(s1)Nc1ccccc1N=C2N1CCN(C)CC1 [olanzapine] | absent
2) CNCCC(Oc1ccc(C(F)(F)F)cc1)c1ccccc1 (stereo not shown) [fluoxetine] | prominently observed
3) CC(C)(C)c1ccc(C(=O)CCCN2CCC(OC(c3ccccc3)c3ccccc3)CC2)cc1 [ebastine] | prominently observed
4) CN1CCN(C2=Nc3cc(Cl)ccc3Nc3ccccc32)CC1 [clozapine] | absent

###

Test system: 3T3L1 cells
Test: PA accumulation in cells transfected with DOCK2-Pii
Assay type: cell-based, mouse
Applied conditions: olanzapine 5 μM, 16 h, plus inhibitor
Numbered stars: 1 amine (or outer) side, 2 acyl side, 3 side chain; on linkers, the order of the positions; unused ones are H or OH. Bridge positions count the residues as written; N and C are the ends. Square brackets hold non-standard residues; d marks the D form. Peptide text beside a SMILES is read from it. X1 = CC(=O)NC(C(=O)OC(C(C)C)C(N[*:1])C(=O)[*:2])C(O)C(C)C; PhLac = O=C(O)[CH](O)Cc1ccccc1; NMeT = CN[CH](C(=O)O)[CH](C)O; NMeA = CN[CH](C)C(=O)O; NMeDha = C=C(NC)C(=O)O
Attribute measured: effect of co-treatment on PA levels in olanzapine-treated cells

1. C=C1C(=O)NC(C)C(=O)N(C)C(C)C(=O)NC(C(OC(=O)C(NC(C)=O)C(O)C(C)C)C(C)C)C(=O)N(C)C(C(C)OC)C(=O)OC(C)C(NC(C)=O)C(=O)OC(Cc2ccccc2)C(=O)N1C (stereo not shown) [YM254890] (Ac-T[PhLac][NMeDha]A[NMeA][X1][NMeT](Me); ester 1-C; configuration not given here) | markedly reduced
2. CC1CCc2c(cc(Br)c(F)c2Br)N1C=O (stereo not shown) | markedly reduced
